Just for reference, patent US20210388087A1 is where these values come from.

# maps each entry to its KD ratio to GLS3000
Molecular target: T1, CD3 epsilon homodimer protein (UniProt P07766 23-126)
T1 construct: also called CD3 (CD3 epsilon)
T1 sequence (P07766 23-126): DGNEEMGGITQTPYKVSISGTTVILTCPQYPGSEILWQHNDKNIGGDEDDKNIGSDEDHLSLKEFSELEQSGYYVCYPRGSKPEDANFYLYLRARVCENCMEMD
Assay: SPR, antibody over immobilised CD3e homodimer;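 also: SPR at 25 °C with CD3 epsilon homodimer amine-coupled to a CM4 sensor chip and antibody flowed over as analyte in HBS-EP+ running buffer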
Give the figure only, with no unit attached.

Example cases with answers are listed next.
Asked: Report KD ratio to GLS3000 for CE115HA000/GLS3000 G89K (antibody, IgG1, name in Kabat numbering, V domains shown, one-arm IgG1) VH: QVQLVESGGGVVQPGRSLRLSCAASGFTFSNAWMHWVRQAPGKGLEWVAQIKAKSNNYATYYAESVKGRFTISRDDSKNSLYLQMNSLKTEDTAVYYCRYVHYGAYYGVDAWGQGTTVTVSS VL: DIVMTQSPLSLPVTPGEPASISCRSSQSLVHSNRNTYLHWYQQKPGQAPRLLIYKVSNRFSGVPDRFSGSGSGTDFTLKISRVEAEDVGVYYCKQGTQVPYTFGQGTKLEIK please.
Given back: 1.8

Asked: So what's the measured KD ratio to GLS3000 for this one? CE115HA000/GLS3000 L33P (antibody, IgG1, name in Kabat numbering, V domains shown, one-arm IgG1) VH: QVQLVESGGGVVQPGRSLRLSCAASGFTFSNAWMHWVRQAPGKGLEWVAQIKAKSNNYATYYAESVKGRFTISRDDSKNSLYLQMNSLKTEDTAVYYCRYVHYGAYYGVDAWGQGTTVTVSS VL: DIVMTQSPLSLPVTPGEPASISCRSSQSLVHSNRNTYPHWYQQKPGQAPRLLIYKVSNRFSGVPDRFSGSGSGTDFTLKISRVEAEDVGVYYCGQGTQVPYTFGQGTKLEIK
Given back: 32.9

Asked: Look up KD ratio to GLS3000 for this binder: CE115HA000/GLS3000 N53P (antibody, IgG1, name in Kabat numbering, V domains shown, one-arm IgG1) VH: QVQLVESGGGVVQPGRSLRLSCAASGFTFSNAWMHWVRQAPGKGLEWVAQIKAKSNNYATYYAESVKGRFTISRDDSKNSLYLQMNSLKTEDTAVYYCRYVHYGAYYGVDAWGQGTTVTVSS VL: DIVMTQSPLSLPVTPGEPASISCRSSQSLVHSNRNTYLHWYQQKPGQAPRLLIYKVSPRFSGVPDRFSGSGSGTDFTLKISRVEAEDVGVYYCGQGTQVPYTFGQGTKLEIK
Given back: 0.98

***
Asked: Any idea what its KD ratio to GLS3000 is? The binder is CE115HA000/GLS3000 Q27R (antibody, IgG1, name in Kabat numbering, V domains shown, one-arm IgG1) VH: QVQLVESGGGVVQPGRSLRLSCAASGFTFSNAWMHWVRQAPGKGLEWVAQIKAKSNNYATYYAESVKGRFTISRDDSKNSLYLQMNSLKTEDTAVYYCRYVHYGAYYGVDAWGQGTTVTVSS VL: DIVMTQSPLSLPVTPGEPASISCRSSRSLVHSNRNTYLHWYQQKPGQAPRLLIYKVSNRFSGVPDRFSGSGSGTDFTLKISRVEAEDVGVYYCGQGTQVPYTFGQGTKLEIK
Given back: 1.06
